# target-or-test-system: papain (Carica papaya, UniProt P00784)
# Construct: purchased Sigma Chem. Co
# assay-procedure: Papain inhibitory activity (milk casein digestion)
# Format: biochemical
# condition-description: papain 80 μg/ml 0.5 ml, cysteine, pH 6.8, 1% milk casein, 40° C., 10 minutes
recorded-metric: ID50 (amount of inhibitor for 50% inhibition)

Task: Look up and report measured ID50 (amount of inhibitor for 50% inhibition) for this entry: O=C(O)[C@@H]1O[C@H]1C(=O)OC1CCCCCCC1 (relative stereo) [EP-36, cyclooctyl potassium epoxysuccinate]
Output: 0.07 γ

Task: Quote ID50 (amount of inhibitor for 50% inhibition) reported for O=C(OCC12CC3CC(CC(C3)C1)C2)[C@@H]1O[C@H]1C(=O)OCC12CC3CC(CC(C3)C1)C2 (relative stereo) [EP-47, di-1-adamantanemethyl epoxysuccinate] please.
Output: 0.25 γ

Task: Return ID50 (amount of inhibitor for 50% inhibition) for the following compound: CCOC(=O)C1OC1C(=O)N[C@@H](CCCCN)C(=O)O (stereo partly drawn)
Output: 25.51 γ

Task: Tell me its ID50 (amount of inhibitor for 50% inhibition) given O=C(OCCC1CCCCC1)[C@@H]1O[C@H]1C(=O)OCCC1CCCCC1 (relative stereo) [EP-61, di-2-cyclohexaneethyl epoxysuccinate] as the entry.
Output: 1.18 γ

Task: Return the recorded ID50 (amount of inhibitor for 50% inhibition) value; entry: O=C(O)[C@@H]1O[C@H]1C(=O)O[C@@H]1CCCC[C@H]1Cl (relative stereo)
Output: 0.07 γ

Task: Indicate the recorded ID50 (amount of inhibitor for 50% inhibition) value for this compound: O=C(O)[C@@H]1O[C@H]1C(=O)OCCCC1CCCC1 (relative stereo)
Output: 0.10 γ

---

# target-or-test-system: papain (Carica papaya)
# Construct: purchased Sigma Chem. Co
# assay-procedure: Papain inhibitory activity (milk casein digestion)
# Assay type: biochemical
# condition-description: papain 80 μg/ml 0.5 ml, cysteine, pH 6.8, 1% milk casein, 40° C., 10 minutes
Assign ID50 (amount of inhibitor for 50% inhibition) to each entry below.

Task: For CCOC(=O)C1OC1C(=O)N[C@H](C(=O)OCc1ccccc1)C(C)C (stereo partly drawn) [EP-158] , write its ID50 (amount of inhibitor for 50% inhibition).
Output: 3.47 γ

Task: Entry O=C([O-])C1OC1C(=O)N[C@@H](Cc1ccccc1)C(=O)[O-].[K+].[K+] (stereo partly drawn) [EP-175] needs its ID50 (amount of inhibitor for 50% inhibition) filled in; supply it.
Output: 1.90 γ

Task: Determine its reported ID50 (amount of inhibitor for 50% inhibition): O=C(O)[C@H]1O[C@@H]1C(=O)OCc1ccc(Cl)cc1 (relative stereo) [EP-116, p-chlorobenzyl potassium epoxysuccinate]
Output: 0.32 γ

Task: Supply recorded ID50 (amount of inhibitor for 50% inhibition) for O=C(O[C@H]1CC[C@H](Cl)CC1)[C@@H]1O[C@H]1C(=O)O[C@H]1CC[C@H](Cl)CC1 (relative stereo) [EP-19] here.
Output: 2.01 γ

Task: Provide one value: measured ID50 (amount of inhibitor for 50% inhibition) of O=C(O)[C@@H]1O[C@H]1C(=O)O[C@H]1CC[C@H](Cl)CC1 (relative stereo) [EP-20]
Output: 0.06 γ

Task: Note ID50 (amount of inhibitor for 50% inhibition) for the molecule shown: Cc1cc(C)cc(COC(=O)[C@@H]2O[C@H]2C(=O)OCc2cc(C)cc(C)c2)c1 (relative stereo) [EP-93, di-3',5'-dimethylbenzyl epoxysuccinate]
Output: 4.31 γ

Task: For the molecule O=C(CC[C@H](NC(=O)C1OC1C(=O)OC1CCCCCCC1)C(=O)OCc1ccccc1)OCc1ccccc1 (stereo partly drawn) [EP-209] , give its reported ID50 (amount of inhibitor for 50% inhibition).
Output: 2.45 γ

Task: Supply reported ID50 (amount of inhibitor for 50% inhibition) belonging to this molecule: CCCCOC(=O)C1OC1C(=O)N[C@@H](CCCNC(=O)OCc1ccccc1)C(=O)OCc1ccccc1 (stereo partly drawn) [EP-183]
Output: 4.46 γ

Task: // fetch ID50 (amount of inhibitor for 50% inhibition) given entry CCOC(=O)C1OC1C(=O)N[C@@H](Cc1ccccc1)C(=O)OCC (stereo partly drawn) [EP-150]
Output: 3.10 γ

---

# target-or-test-system: papain (Carica papaya)
# Construct: purchased Sigma Chem. Co
# Sequence (P00784 134-345): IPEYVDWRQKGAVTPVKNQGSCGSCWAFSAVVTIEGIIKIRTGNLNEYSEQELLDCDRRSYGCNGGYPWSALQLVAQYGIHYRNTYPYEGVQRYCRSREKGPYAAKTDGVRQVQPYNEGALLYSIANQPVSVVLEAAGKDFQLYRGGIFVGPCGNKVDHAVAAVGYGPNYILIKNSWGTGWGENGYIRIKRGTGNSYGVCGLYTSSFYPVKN
# assay-procedure: Papain inhibitory activity (milk casein digestion)
# Type: biochemical
# condition-description: papain 80 μg/ml 0.5 ml, cysteine, pH 6.8, 1% milk casein, 40° C., 10 minutes
recorded-metric: ID50 (amount of inhibitor for 50% inhibition)

Task: Tell me ID50 (amount of inhibitor for 50% inhibition) reported for Cc1cccc(COC(=O)C2OC2C(=O)N[C@@H](Cc2ccc(O)cc2)C(=O)OCc2ccccc2)c1 (stereo partly shown)
Output: 0.70 γ

Task: Tell me measured ID50 (amount of inhibitor for 50% inhibition) for O=C(OCC1CCCCC1)[C@@H]1O[C@H]1C(=O)OCC1CCCCC1 (relative stereo) [EP-41, dicyclohexanemethyl epoxysuccinate] please.
Output: 0.27 γ

Task: Item O=C(NCCCC[C@H](NC(=O)C1OC1C(=O)[O-])C(=O)OCc1ccccc1)OCc1ccccc1.[K+] (stereo partly shown) : provide ID50 (amount of inhibitor for 50% inhibition)
Output: 0.98 γ

Task: Answer with the recorded ID50 (amount of inhibitor for 50% inhibition) of O=C(OC1CC2CCC1CC2)[C@@H]1O[C@H]1C(=O)OC1CC2CCC1CC2 (relative stereo) [EP-51, dibicyclo [2,2,2] octyl epoxysuccinate] only.
Output: 0.30 γ

The measured values listed here are drawn from patent US4393228A.
